The reported numbers originate from patent US11987586B1.

# Target under test: human OX2 receptor (Homo sapiens, UniProt O43614)
# Construct: expressed in transfected cells
# Sequence (O43614 whole entry): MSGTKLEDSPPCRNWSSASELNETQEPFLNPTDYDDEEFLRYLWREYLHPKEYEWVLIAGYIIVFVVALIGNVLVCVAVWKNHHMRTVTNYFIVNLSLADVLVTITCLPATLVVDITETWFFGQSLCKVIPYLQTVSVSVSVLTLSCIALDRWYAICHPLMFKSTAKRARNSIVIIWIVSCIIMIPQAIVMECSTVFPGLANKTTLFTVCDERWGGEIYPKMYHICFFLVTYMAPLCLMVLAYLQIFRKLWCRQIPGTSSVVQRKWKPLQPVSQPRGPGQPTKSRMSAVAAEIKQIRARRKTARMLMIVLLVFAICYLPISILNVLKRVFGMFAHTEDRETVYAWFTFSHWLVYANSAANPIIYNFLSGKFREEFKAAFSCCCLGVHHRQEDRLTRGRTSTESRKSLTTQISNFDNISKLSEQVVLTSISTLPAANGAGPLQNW
# Protocol: Measurement of orexin type 2 receptor agonist activity (calcium fluorescence, Fluo-4, FDSS)
# Format: cell-based
# Assay setup: 3 uM test compound; CHO cells expressing human OX2 receptor; DMSO = 0%, 10 nM orexin A (human) = 100%
Measured attribute: OX2R agonist activity (3 uM, %)
Answers are plain numbers, in %.

CS(=O)(=O)N[C@@H]1Cn2c(cn(-c3noc4cc(OC(F)F)cc(-c5c(F)cc(F)cc5F)c34)c2=O)C1(F)F ... 102
CCS(=O)(=O)N[C@H]1C[C@H]2CN(c3noc4cc(C5CC5)cc(-c5c(F)cccc5F)c34)C(=O)N2C1 ... 99
CCS(=O)(=O)N[C@@H]1CN2C(=O)N(c3noc4cccc(-c5ccco5)c34)CC[C@@H]2C1(F)F ... 97
CS(=O)(=O)N[C@@H]1Cn2c(cn(-c3noc4nc(C5CC5)cc(-c5c(F)cccc5F)c34)c2=O)C1(F)F ... 115
CS(=O)(=O)N[C@@H]1CN2C(=O)N(c3noc4cc(OC(F)F)cc(-c5c(F)cc(F)cc5F)c34)CC[C@@H]2C1(F)F ... 102

Value sought for every listed molecule: OX2R agonist activity (3 uM, %).
1. CCS(=O)(=O)N[C@@H]1CN2C(=O)N(c3noc4cc(C(F)F)cc(-c5c(F)cc(F)cc5F)c34)C[C@@H]2C1(F)F
2. CCS(=O)(=O)N[C@@H]1Cn2c(cn(-c3noc4ccc(F)c(-c5c(F)cc(F)cc5F)c34)c2=O)C1(F)F
3. CCS(=O)(=O)N[C@H]1C[C@H]2CN(c3noc4cc(OC)cc(-c5c(F)cccc5F)c34)C(=O)N2C1
4. Cn1nc2cccc(-c3c(F)cccc3F)c2c1-n1cc2n(c1=O)C[C@@H](NS(C)(=O)=O)C2
5. CCS(=O)(=O)N[C@H]1C[C@H]2CN(c3noc4ccc(F)c(-c5c(F)cccc5F)c34)C(=O)N2C1
6. CNS(=O)(=O)N[C@@H]1Cn2c(cn(-c3noc4cc(F)cc(-c5c(F)cc(F)cc5F)c34)c2=O)C1(F)F
7. CS(=O)(=O)N[C@@H]1Cn2c(cn(-c3noc4ccc(F)c(-c5c(F)cccc5F)c34)c2=O)C1(F)F
8. CCS(=O)(=O)N[C@@H]1Cn2c(cn(-c3noc4nc(OC)cc(-c5c(F)cc(F)cc5F)c34)c2=O)C1(F)F

[105, 98, 100, 79, 97, 101, 99, 107]

Value sought for every listed molecule: OX2R agonist activity (3 uM, %).
1. CN(C)S(=O)(=O)N[C@H]1C[C@H]2CN(c3noc4cccc(-c5c(F)cccc5F)c34)C(=O)N2C1
2. CS(=O)(=O)N[C@@H]1CN2C(=O)N(c3noc4cc(C(F)(F)F)cc(-c5c(F)cc(F)cc5F)c34)CC[C@@H]2C1(F)F
3. CCS(=O)(=O)N[C@H]1Cc2cn(-c3c(C)nn4cccc(-c5c(F)cccc5F)c34)c(=O)n2C1
4. CS(=O)(=O)NC1Cn2c(cn(-c3noc4ccc(F)c(-c5c(F)cc(F)cc5F)c34)c2=O)CC1(F)F (single isomer, unassigned)

1: 106; 2: 106; 3: 95; 4: 103
